Recorded measurements of TGI, one per entry
System: HL-60(TB) leukemia
Method Summary: NCI tumour cell line growth inhibition, 48 h
Expressed in µM, but write only the number.

Some solved entries appear below for comparison.
>  <Smiles Text>
COC(=O)Nc1nc2ccc(S(=O)(=O)SC)cc2[nH]1

>  <TGI (µM)>
8.11

$$$$
>  <Smiles Text>
CCOC(=O)C1CCN(S(=O)(=O)/N=C2/NC(=O)NC2=C(Cl)Cl)CC1

>  <TGI (µM)>
4.34

$$$$

Now take the following compound into account.
Inquiry: Item COC(=O)C1=CS/C(=C2\S[C@@H]3[C@H](S2)[C@H]2C=C[C@@H]3C2)S1 with HL-60(TB) leukemia - TGI?
Reply text: 57.9
